Origin of values: patent US4916214A

- Test context: rat, in vivo, 60 min
Measured quantity: HEART/BLOOD

CCOCCOCCOC(CP(C)C)CP(C)C : 122

1. CP(C)CC1(CP(C)C)CCOCC1
2. COCCOCC(COC)(CP(C)C)CP(C)C
3. CP(C)CC1(CP(C)C)COC(C)(C)OC1
Input line: Task field, ranking: reported HEART/BLOOD, descending order. Answer by writing out the labels in the requested order.
Output line: 2, 1, 3

----------
- Test context: rat, in vivo, 2 min
Measured quantity: Heart/Liver Counts/Gram ratio

COCC(COC)(CP(C)C)CP(C)C.COCC(COC)(CP(C)C)CP(C)C.O=[N][99Tc+][Cl].[Cl-] : 1.56
COCC(COC)(CP(C)C)CP(C)C.COCC(COC)(CP(C)C)CP(C)C.COCC(COC)(CP(C)C)CP(C)C.[99Tc+] : 1.68
COC(CC(OC)P(C)C)P(C)C.COC(CC(OC)P(C)C)P(C)C.COC(CC(OC)P(C)C)P(C)C.[99Tc+] (centres unmarked) : 1.14

1. COCP(C)CCP(C)COC (centres unmarked)
2. COCP(C)CCP(C)C (centres unmarked)
Input line: Sorting by Heart/Liver Counts/Gram ratio in descending order, would 1 or 2 appear first? Refer to your chosen item by its label in the answer.
Output line: 1

----------
- Protocol: Animal biodistribution of 99mTc complexes in guinea pigs
- Format: in vivo, guinea pig
- Test context: guinea pig, 60 min p.i. in vivo, mean
Measured quantity: Heart (% injected dose/organ)
Give your result in % injected dose/organ as a bare value.

Completed entries (count: 3):
COCC(COC)(CP(C)C)CP(C)C.COCC(COC)(CP(C)C)CP(C)C.COCC(COC)(CP(C)C)CP(C)C.[99Tc+] : 1.06
COC(CC(OC)P(C)C)P(C)C.COC(CC(OC)P(C)C)P(C)C.COC(CC(OC)P(C)C)P(C)C.[99Tc+] (stereo not shown) : 0.57
COCC(COC)(CP(C)C)CP(C)C.COCC(COC)(CP(C)C)CP(C)C.O=[N][99Tc+][Cl].[Cl-] : 1.05

Memo: COC(CC(OC)P(C)C)P(C)C.COC(CC(OC)P(C)C)P(C)C.O=[N][99Tc+][Cl].[Cl-] (stereo not shown) , reported Heart: 0.70

----------
- Test context: rat, in vivo, 60 min
Measured quantity: Heart

CCOCCOCCOC(CP(C)C)CP(C)C : 1.02
COCCOCC(COC)(CP(C)C)CP(C)C : 1.77

P. CP(C)CC1(CP(C)C)COC(C)(C)OC1
Q. CP(C)CC1(CP(C)C)CCOCC1
Input line: Please tell me which of the two, P or Q , has the higher reported Heart value. Your answer should be the label of the entry you select.
Output line: P
(P: 0.55, Q: 0.18)

----------
- Test context: rat, in vivo, 2 min
Measured quantity: HEART/LIVER

COC(CC(OC)P(C)C)P(C)C (centres unmarked) : 5.01
CCOCCOCCOC(CP(C)C)CP(C)C : 0.83

A. CP(C)CC1(CP(C)C)CCOCC1
B. COCCOCC(COC)(CP(C)C)CP(C)C
C. CP(C)CC1(CP(C)C)COC(C)(C)OC1
Input line: Given 3 compounds, produce a descending ranking by HEART/LIVER. Arrange the labels as the request states and list them.
Output line: B, C, A
(B: 1.82, C: 0.46, A: 0.11)

----------
Overview of reported Blood across a group of compounds:
- Test context: rat, in vivo, 60 min
# unit: % injected dose/organ | format: bare number

Solved entries:
COC(CC(OC)P(C)C)P(C)C.COC(CC(OC)P(C)C)P(C)C.COC(CC(OC)P(C)C)P(C)C.[99Tc+] (stereo not shown) : 0.64
COC(CC(OC)P(C)C)P(C)C.COC(CC(OC)P(C)C)P(C)C.O=[N][99Tc+][Cl].[Cl-] (stereo not shown) : 0.44

Lab note: next compound to report on.
Looking up `COCC(COC)(CP(C)C)CP(C)C.COCC(COC)(CP(C)C)CP(C)C.O=[N][99Tc+][Cl].[Cl-]` , I see its Blood listed as 0.14

----------
- Protocol: Animal biodistribution of 99mTc complexes in guinea pigs
- Type: in vivo, guinea pig
- Test context: guinea pig, 60 min p.i. in vivo, mean
Measured quantity: Blood (% injected dose/organ)
Number in % injected dose/organ, nothing else.

COCC(COC)(CP(C)C)CP(C)C.COCC(COC)(CP(C)C)CP(C)C.COCC(COC)(CP(C)C)CP(C)C.[99Tc+] [Example 18] : 0.46

Input COC(CC(OC)P(C)C)P(C)C.COC(CC(OC)P(C)C)P(C)C.COC(CC(OC)P(C)C)P(C)C.[99Tc+] (stereo not shown) [Example 16] . Output Blood: 2.03

For this molecule ( COCC(COC)(CP(C)C)CP(C)C.COCC(COC)(CP(C)C)CP(C)C.O=[N][99Tc+][Cl].[Cl-] [Example 19] ), measured Blood is 0.48

For record COC(CC(OC)P(C)C)P(C)C.COC(CC(OC)P(C)C)P(C)C.O=[N][99Tc+][Cl].[Cl-] (stereo not shown) [Example 17] the listed Blood is 1.31

----------
- Test context: rat, in vivo, 2 min
Measured quantity: Heart/Muscle Counts/Gram ratio

COCC(COC)(CP(C)C)CP(C)C.COCC(COC)(CP(C)C)CP(C)C.COCC(COC)(CP(C)C)CP(C)C.[99Tc+] : 8.45
COCP(C)CCP(C)C (centres unmarked) : 4.99
COCC(COC)(CP(C)C)CP(C)C.COCC(COC)(CP(C)C)CP(C)C.O=[N][99Tc+][Cl].[Cl-] : 4.57
COCP(C)CCP(C)COC (centres unmarked) : 6.61
COC(CC(OC)P(C)C)P(C)C.COC(CC(OC)P(C)C)P(C)C.COC(CC(OC)P(C)C)P(C)C.[99Tc+] (centres unmarked) : 5.01

----------
- Protocol: Animal biodistribution of 99mTc complexes in guinea pigs
- Format: in vivo, guinea pig
- Test context: guinea pig, 60 min p.i. in vivo, mean
Measured quantity: Liver (% injected dose/organ)
Write it as a number; the unit % injected dose/organ goes unstated.

COC(CC(OC)P(C)C)P(C)C.COC(CC(OC)P(C)C)P(C)C.O=[N][99Tc+][Cl].[Cl-] (stereo not shown) : 2.76
COCC(COC)(CP(C)C)CP(C)C.COCC(COC)(CP(C)C)CP(C)C.COCC(COC)(CP(C)C)CP(C)C.[99Tc+] : 2.6
COCC(COC)(CP(C)C)CP(C)C.COCC(COC)(CP(C)C)CP(C)C.O=[N][99Tc+][Cl].[Cl-] : 0.92

Now look at this entry.
Sample COC(CC(OC)P(C)C)P(C)C.COC(CC(OC)P(C)C)P(C)C.COC(CC(OC)P(C)C)P(C)C.[99Tc+] (stereo not shown) ; Liver observed: 10.0

----------
- Test context: rat, in vivo, 60 min
// reported Liver + GI per item
State the answer as a number, implicitly in % injected dose/organ.

Previously resolved entries follow.
COC(CC(OC)P(C)C)P(C)C.COC(CC(OC)P(C)C)P(C)C.COC(CC(OC)P(C)C)P(C)C.[99Tc+] (stereo not shown) : 43.3
COCC(COC)(CP(C)C)CP(C)C.COCC(COC)(CP(C)C)CP(C)C.O=[N][99Tc+][Cl].[Cl-] : 45.5

Continue with the next compound.
Entry COC(CC(OC)P(C)C)P(C)C.COC(CC(OC)P(C)C)P(C)C.O=[N][99Tc+][Cl].[Cl-] (stereo not shown) ; Liver + GI = 47.9

----------
Each record here notes measured Heart/Liver Counts/Gram ratio.
- Protocol: Animal biodistribution of 99mTc complexes in guinea pigs;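 further: Heart, liver and kidney plus urine values are percent of the injected material, background-corrected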
- Assay type: in vivo, guinea pig
- Test context: guinea pig, 60 min p.i. in vivo, mean
Reply with just the number.

COCC(COC)(CP(C)C)CP(C)C.COCC(COC)(CP(C)C)CP(C)C.COCC(COC)(CP(C)C)CP(C)C.[99Tc+] : 5.63
COCC(COC)(CP(C)C)CP(C)C.COCC(COC)(CP(C)C)CP(C)C.O=[N][99Tc+][Cl].[Cl-] : 17.5
COC(CC(OC)P(C)C)P(C)C.COC(CC(OC)P(C)C)P(C)C.O=[N][99Tc+][Cl].[Cl-] (stereo not shown) : 4.21

Now look at this one.
Summary for this molecule, COC(CC(OC)P(C)C)P(C)C.COC(CC(OC)P(C)C)P(C)C.COC(CC(OC)P(C)C)P(C)C.[99Tc+] (stereo not shown) : Heart/Liver Counts/Gram ratio is 0.94

----------
Reported Lung values follow for various compounds
- Test context: rat, in vivo, 60 min
Kindly answer with a numeric value in % injected dose/organ, unit omitted.

COCC(COC)(CP(C)C)CP(C)C.COCC(COC)(CP(C)C)CP(C)C.O=[N][99Tc+][Cl].[Cl-] [Example 19] : 0.68
COC(CC(OC)P(C)C)P(C)C.COC(CC(OC)P(C)C)P(C)C.COC(CC(OC)P(C)C)P(C)C.[99Tc+] (stereo not shown) [Example 16] : 1.79

Now look at this one.
Quick note, Lung for COC(CC(OC)P(C)C)P(C)C.COC(CC(OC)P(C)C)P(C)C.O=[N][99Tc+][Cl].[Cl-] (stereo not shown) [Example 17] landed at 0.72
